Target: human Kv1.5 potassium channel alpha subunit (Homo sapiens)
Sequence (P22460 whole entry): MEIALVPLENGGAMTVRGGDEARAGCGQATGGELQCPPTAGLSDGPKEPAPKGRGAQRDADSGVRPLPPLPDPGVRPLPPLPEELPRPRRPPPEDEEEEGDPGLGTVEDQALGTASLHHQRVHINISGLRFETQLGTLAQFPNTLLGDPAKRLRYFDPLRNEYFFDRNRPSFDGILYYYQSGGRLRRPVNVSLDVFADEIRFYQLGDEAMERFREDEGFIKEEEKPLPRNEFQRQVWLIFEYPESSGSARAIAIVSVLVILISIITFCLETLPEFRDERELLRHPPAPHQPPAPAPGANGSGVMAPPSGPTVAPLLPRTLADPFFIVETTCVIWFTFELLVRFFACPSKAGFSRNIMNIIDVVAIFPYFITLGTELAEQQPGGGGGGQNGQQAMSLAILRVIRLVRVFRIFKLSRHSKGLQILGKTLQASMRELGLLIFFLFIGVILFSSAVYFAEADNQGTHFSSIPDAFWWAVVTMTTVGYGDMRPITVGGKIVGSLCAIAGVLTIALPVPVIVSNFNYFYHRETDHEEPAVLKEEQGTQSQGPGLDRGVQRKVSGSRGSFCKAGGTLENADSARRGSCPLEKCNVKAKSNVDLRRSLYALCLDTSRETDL
Experiment: High throughput Kv1.5 planar patch clamp assay (Kv1.5 HT-clamp, IonWorks HT)
Conditions: CHO cells stably expressing human Kv1.5; 27th depolarization to +40 mV in 5 Hz train
Protocol: The high throughput Kv1.5 planar patch clamp assay is a systematic primary screen. It confirms activity and provides a functional measure of the potency of agents that specifically affect Kv1.5 potassium channels. […] Kv1.5 ionic currents are recorded at room temperature. […] Planar micropipette hole resistances (Rp) is determined by applying a 10 mV, 160 ms potential difference across each hole (Hole test). • 3. […]
measurement_name: IC50 (nM)

OC(c1cccnc1-c1cc(Cl)cc(Cl)c1)C(c1cccnc1)c1cccnc1F (single isomer, unassigned) [Example 3 Isomer 1, Enantiomer A] ... 96

(A) OC(c1cccnc1-c1cccc(C(F)(F)F)c1)C(c1cccnc1)c1cccnc1 (single isomer, unassigned) [Example 2 Enantiomer B]
(B) OC(c1cccnc1-c1cc(Cl)ccc1Cl)C(c1cccnc1)c1cccnc1 (racemic) [Example 5 Racemic]
Determine, for A and B , which has the greater value of IC50. Record your answer as the label of the chosen record.
A
(A: 8220 nM, B: 77 nM)

FYI, the data here is from patent US7973059B2.
